Recorded melting point values for a group of molecules are listed next.
Give the quantity in °C, number only.

{"Smiles data": "N#Cc1cc(-c2ccc(Cl)c(F)c2)c2c(c1)cc1n2CCCNC1=O", "melting point / °C": 221.5}
{"Smiles data": "Cc1c2n(c3c(-c4ccc(Cl)cc4)cc(C#N)cc13)CCNC2=O", "melting point / °C": 298}
{"Smiles data": "COc1ccc(-c2cc(F)cc3cc4n(c23)CCCNC4=O)cc1", "melting point / °C": 225.5}
{"Smiles data": "O=C1NCCn2c1c(C(F)(F)F)c1cc(Cl)cc(-c3ccc(Cl)cc3)c12", "melting point / °C": 214}

Next molecule, please.
## Input Find the recorded melting point belonging to `Cc1c2n(c3c(-c4ccc(Cl)cc4Cl)cc(C#N)cc13)CCCNC2=O` and report it.
## Output 257

Where do the numbers come from? From patent US9284321B2.
